System under test: Cellular tumor antigen p53 (Homo sapiens) (UniProt P04637)
Sequence (P04637 whole entry, looked up): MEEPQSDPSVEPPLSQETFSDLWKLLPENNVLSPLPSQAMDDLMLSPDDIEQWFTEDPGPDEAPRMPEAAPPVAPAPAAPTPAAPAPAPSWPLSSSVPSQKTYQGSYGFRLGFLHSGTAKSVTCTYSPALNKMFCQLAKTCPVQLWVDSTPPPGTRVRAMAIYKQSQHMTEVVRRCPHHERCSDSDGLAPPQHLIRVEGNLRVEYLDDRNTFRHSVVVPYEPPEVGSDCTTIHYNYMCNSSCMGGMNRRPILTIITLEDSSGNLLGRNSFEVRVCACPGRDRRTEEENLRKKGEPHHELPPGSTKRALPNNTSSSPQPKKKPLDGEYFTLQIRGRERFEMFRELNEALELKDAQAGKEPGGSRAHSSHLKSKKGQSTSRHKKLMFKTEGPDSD
Measurement description: Primary qHTS for small molecule compounds that upregulate eGFP-tagged delta133p53alpha (in N-terminal) cells. (AID 2060322);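 note: cells pre-induced with doxycycline then dosed without doxycycline; series mostly up to about 56 µM; 0% = DMSO vehicle and 100% = reference activator; nearly all actives have a fitted effect of over 75% in size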
Condition label: NCI-H358 eGFP-delta133p53alpha fluorescence, 24 h; hits give high values
Inconclusive results are not listed.
Provide the recorded activation for the entries that follow.
Give the value, in units of %, as a plain number.

Record request: activation value, item C=C1CC[C@@H]2[C@](C)(CC[C@H](O)[C@@]2(C)CCC=C(C)C)[C@@H]1Cc1c[nH]c2ccccc12
-21.4

Moving on to the next compound: C/C(=C\C(=O)OCCCCCCCCC(=O)O)C[C@@H]1OC[C@H](C[C@@H]2O[C@H]2[C@@H](C)[C@H](C)O)[C@@H](O)[C@H]1O
-7.64

Try the compound OC1(c2ccc(Cl)c(C(F)(F)F)c2)CCN(CCCC(c2ccc(F)cc2)c2ccc(F)cc2)CC1
13

// same read-out, input: O=C(O)/C=C/c1ccc(O)c(O[C@@H]2O[C@H](CO)[C@@H](O)[C@H](O)[C@H]2O)c1
16

Record: O=C1Cc2c([nH]c3ccc(Br)cc23)-c2ccccc2N1
-51

What about CC(=O)c1c(O)cc2cccc3c2c1CC(C)(O)O3 (stereo unspecified) ?
6.11

Then this compound: CCCCCCCCCC(=O)NC(CN1CCOCC1)[C@H](O)c1ccccc1 (stereo partly specified)
-7.14

Same read-out for Cc1cc(C(=O)Cn2cc(C#N)ccc2=O)c(C)n1Cc1ccccc1 ?
6.21

Same again, this time with C[C@@H]1O[C@@H](O[C@H]2[C@H](Oc3cc(O)c(C(=O)CCc4ccc(O)cc4)c(O)c3)O[C@H](CO)[C@@H](O)[C@@H]2O)[C@H](O)[C@H](O)[C@H]1O
-10.5

Please answer likewise for C[C@H]1C[C@H](O)c2ccsc2S1(=O)=O
-26.6

And for Cc1c(N2C(=O)c3ccc(C(=O)O)cc3C2=O)c(=O)n(-c2ccccc2)n1C ?
-5

# iterate: C=CC1(C)CC2=CCC3C(C)(C(=O)O)CCCC3(C)C2CC1OC(C)=O (stereo unspecified)
-14.5

And then Cc1ccc(S(=O)(=O)Nc2cc(Cl)ccc2C(=O)Nc2nc(-c3ccccc3)cs2)cc1 , what is it?
7.51

Consider next the compound COC1C(OC(=O)/C=C/C=C/C=C/C=C/C(=O)O)CCC2(CO2)C1C1(C)OC1CC=C(C)C (stereo unspecified) in the same way.
10.7

Another compound: CC(Nc1ncnc2nc[nH]c12)c1cc2cccc(Cl)c2c(=O)n1-c1ccccc1 (stereo unspecified)
27.7

Okay, and Cc1cnn(-c2ccccc2)c1NC(=O)COCc1ccccc1 ?
0.333
